All values here come from patent US20200262877A1.

# testTarget: Kir2.1 (Homo sapiens)
# Construct: host or cells: HEK293 or CHO
# Sequence (P63252 whole entry): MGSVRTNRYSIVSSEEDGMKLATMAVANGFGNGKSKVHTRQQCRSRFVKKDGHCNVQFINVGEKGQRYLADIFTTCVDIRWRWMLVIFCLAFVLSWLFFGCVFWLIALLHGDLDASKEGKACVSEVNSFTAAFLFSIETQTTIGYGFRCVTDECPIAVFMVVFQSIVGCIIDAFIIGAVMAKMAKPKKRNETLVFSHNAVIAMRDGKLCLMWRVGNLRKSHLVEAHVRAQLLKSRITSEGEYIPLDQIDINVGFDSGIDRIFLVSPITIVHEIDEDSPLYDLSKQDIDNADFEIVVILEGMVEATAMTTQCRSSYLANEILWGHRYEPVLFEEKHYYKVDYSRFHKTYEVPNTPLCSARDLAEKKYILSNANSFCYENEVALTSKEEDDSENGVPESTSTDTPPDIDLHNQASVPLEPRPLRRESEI
# experimentSummary: Ion channel panel (IonWorks Barracuda): Kir2.1
# Type: cell-based
# recordedConditions: peptide at 0.2 μM; 100% = no change, <100% = inhibition
endpoint: Activity of Kir2.1 with peptide, expressed as a percentage of the reference compound (%)
Give the number; % is assumed, so skip it.

Example substances with recorded Activity of Kir2.1 with peptide, expressed as a percentage of the reference compound:
# substance, testTarget, experimentalResult
rows = [
    ("4 (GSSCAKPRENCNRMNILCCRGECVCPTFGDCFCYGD) [compound 4]", "Kir2.1 (Homo sapiens)", 109),
    ("10 (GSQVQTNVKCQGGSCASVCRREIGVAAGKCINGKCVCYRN) [compound 10]", "Kir2.1 (Homo sapiens)", 100),
]

Input: Write down Activity of Kir2.1 with peptide, expressed as a percentage of the reference compound measured for item 21 (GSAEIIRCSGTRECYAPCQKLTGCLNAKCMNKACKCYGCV) [compound 21]
Output: 105

Input: Write down Activity of Kir2.1 with peptide, expressed as a percentage of the reference compound measured for item 17 (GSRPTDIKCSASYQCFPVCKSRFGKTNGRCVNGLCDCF) [compound 17]
Output: 103

Input: Write down Activity of Kir2.1 with peptide, expressed as a percentage of the reference compound measured for item 26 (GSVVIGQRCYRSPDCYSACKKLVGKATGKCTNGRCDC) [compound 26]
Output: 102

Input: Write down Activity of Kir2.1 with peptide, expressed as a percentage of the reference compound measured for item 22 (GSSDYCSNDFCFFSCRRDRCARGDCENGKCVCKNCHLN) [compound 22]
Output: 94

Input: Write down Activity of Kir2.1 with peptide, expressed as a percentage of the reference compound measured for item 16 (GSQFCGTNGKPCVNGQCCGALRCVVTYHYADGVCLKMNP) [compound 16]
Output: 98

Input: Write down Activity of Kir2.1 with peptide, expressed as a percentage of the reference compound measured for item 11 (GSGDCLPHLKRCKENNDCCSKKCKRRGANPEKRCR) [compound 11]
Output: 107

Input: Write down Activity of Kir2.1 with peptide, expressed as a percentage of the reference compound measured for item 24 (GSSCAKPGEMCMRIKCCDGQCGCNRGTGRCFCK) [compound 24]
Output: 104

Input: Write down Activity of Kir2.1 with peptide, expressed as a percentage of the reference compound measured for item 14 (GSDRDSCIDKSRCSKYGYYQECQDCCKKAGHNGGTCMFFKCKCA) [compound 14]
Output: 95

Input: Write down Activity of Kir2.1 with peptide, expressed as a percentage of the reference compound measured for item 29 (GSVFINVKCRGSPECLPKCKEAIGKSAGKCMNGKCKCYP) [compound 29]
Output: 103

----------
# testTarget: α3β4 (Homo sapiens, UniProt P30926+P32297)
# Construct: host or cells: HEK293 or CHO
# Sequence (P30926 22-498): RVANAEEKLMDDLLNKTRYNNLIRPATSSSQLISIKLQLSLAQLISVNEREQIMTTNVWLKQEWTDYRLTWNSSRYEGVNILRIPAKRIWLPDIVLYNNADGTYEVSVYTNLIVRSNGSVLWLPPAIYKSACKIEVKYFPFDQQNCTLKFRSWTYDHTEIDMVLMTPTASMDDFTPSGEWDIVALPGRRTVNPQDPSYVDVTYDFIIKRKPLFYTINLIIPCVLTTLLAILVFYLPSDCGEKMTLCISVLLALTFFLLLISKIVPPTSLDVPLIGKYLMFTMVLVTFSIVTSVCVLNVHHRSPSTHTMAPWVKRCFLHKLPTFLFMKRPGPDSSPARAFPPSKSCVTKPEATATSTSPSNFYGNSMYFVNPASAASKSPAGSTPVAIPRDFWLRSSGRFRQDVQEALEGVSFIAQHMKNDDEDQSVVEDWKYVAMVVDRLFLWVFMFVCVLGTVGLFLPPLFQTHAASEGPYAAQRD
# Sequence (P32297 32-505): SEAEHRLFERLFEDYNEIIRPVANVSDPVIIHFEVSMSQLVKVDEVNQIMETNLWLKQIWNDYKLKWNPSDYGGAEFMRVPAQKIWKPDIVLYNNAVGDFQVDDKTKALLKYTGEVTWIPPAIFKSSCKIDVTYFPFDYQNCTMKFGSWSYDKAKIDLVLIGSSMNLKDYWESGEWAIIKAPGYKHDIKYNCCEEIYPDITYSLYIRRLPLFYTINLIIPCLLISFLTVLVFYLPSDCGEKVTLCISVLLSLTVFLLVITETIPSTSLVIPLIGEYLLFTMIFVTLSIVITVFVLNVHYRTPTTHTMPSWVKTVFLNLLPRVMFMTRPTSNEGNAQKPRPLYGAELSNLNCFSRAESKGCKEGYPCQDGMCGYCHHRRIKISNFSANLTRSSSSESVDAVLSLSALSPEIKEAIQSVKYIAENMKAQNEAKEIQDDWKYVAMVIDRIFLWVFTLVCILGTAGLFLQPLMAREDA
# experimentSummary: Ion channel panel (IonWorks Barracuda): α3β4
# Format: cell-based
# recordedConditions: peptide at 20 μM; 100% = no change, <100% = inhibition
Please use t whenever Activity of a3b4 with peptide (percentage of the reference compound) is not below 90%, and f whenever it is.

Please review the following examples before continuing.
# substance, labelValue
records = [
    ("12 (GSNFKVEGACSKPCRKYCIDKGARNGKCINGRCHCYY) [compound 12]", "t"),
    ("13 (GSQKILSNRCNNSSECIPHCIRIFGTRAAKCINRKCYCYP) [compound 13]", "f"),
]

Now, please, on to the next substance.
Input: Does Activity of a3b4 with peptide (percentage of the reference compound) meet or surpass 90% for 6 (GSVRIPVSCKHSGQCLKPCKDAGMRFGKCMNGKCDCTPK) [compound 6] ?
Output: t
